Numbers sourced from the supplement of paper PMC7125110.

self-cleavage kobs at 640 uM GlcN6P for assorted variants
B1: glmS ribozyme (parent)
chain: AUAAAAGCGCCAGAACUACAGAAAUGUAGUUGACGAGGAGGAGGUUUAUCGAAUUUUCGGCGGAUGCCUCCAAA

variants of: B1; test: self-cleavage kobs at 640 uM GlcN6P; higher = faster cleavage; RNA array; details: with glucosamine-6-phosphate
This sample holds only a part of the variants without activity.
The reply should contain only the number, in s⁻¹.

variant_designation	u	self-cleavage kobs at 640 uM GlcN6P
U46C U49G	s⁻¹	4.66e-05

Q: Answer with reported self-cleavage kobs at 640 uM GlcN6P of U30G C50G C58G G60U C61G
A: 0.00014

Q: Answer with reported self-cleavage kobs at 640 uM GlcN6P of A6U C61G C67A
A: 0.000106

Q: Answer with reported self-cleavage kobs at 640 uM GlcN6P of C11G C71G
A: 0.000382

Q: Answer with reported self-cleavage kobs at 640 uM GlcN6P of G13U A15U C70U
A: 3.4e-05

Q: Answer with reported self-cleavage kobs at 640 uM GlcN6P of C11A A14G U65G
A: 5.21e-05

Q: Answer with reported self-cleavage kobs at 640 uM GlcN6P of C11G A53U U55G C67G
A: 0.000112

Q: Answer with reported self-cleavage kobs at 640 uM GlcN6P of A14U U54A
A: 0.00228

Q: Answer with reported self-cleavage kobs at 640 uM GlcN6P of U54C C67A
A: 0.00199

Q: Answer with reported self-cleavage kobs at 640 uM GlcN6P of C11A U31G
A: 4.58e-05

Q: Answer with reported self-cleavage kobs at 640 uM GlcN6P of A20C
A: 0.00992
